Hi there, I'd appreciate the recorded viability at 48 h for every entry that follows.
assay: Cytotoxicity against mouse L929 cells assessed as cell viability up to 200 uM measured after 48 hrs by MTT assay; type: cell-based; settings: read-out: Activity

Below are worked cases with known answers.
>>> df
                         compound_structure  reported_measurement
0    NS(=O)(=O)c1ccc(NC(=O)c2ccc(Cl)cc2)cc1                 > 80%
1  COC(=O)c1ccc(C(=O)Nc2cccc(S(N)(=O)=O)c2)cc1                 > 80%
2    NS(=O)(=O)c1cccc(NC(=O)c2ccc(Cl)cc2)c1                 > 80%

Consider the additional molecule presented here.
Prompt: Identify the reported viability at 48 h for the following entry. CC(C)(C)c1ccc(C(=O)Nc2ccccc2S(N)(=O)=O)cc1
Response: > 80%

---

Hi there, I'd appreciate the recorded inhibition for every entry that follows.
tested on: Bacteria; assay: Inhibition of bacterial L1 expressed in Escherichia coli BL21 (DE3) at 20 uM using cefazolin as substrate by spectrometry analysis relative to control

>>> df
                         compound_structure  reported_metric  reported_measurement
0  COC(=O)c1ccc(C(=O)Nc2cccc(S(N)(=O)=O)c2)cc1       inhibition                 < 20%
1  NS(=O)(=O)c1cccc(NC(=O)c2ccc(C(F)(F)F)cc2)c1       inhibition                 < 20%
2        NS(=O)(=O)c1cccc(NC(=O)c2ccccc2)c1       inhibition                 < 20%
3        NS(=O)(=O)c1ccc(NC(=O)c2ccccc2)cc1       inhibition                 < 20%
4  CC(C)(C)c1ccc(C(=O)Nc2ccccc2S(N)(=O)=O)cc1       inhibition                 < 20%
5    NS(=O)(=O)c1cccc(NC(=O)c2ccc(Cl)cc2)c1       inhibition                 < 20%
6      NS(=O)(=O)c1ccc(NC(=O)CCc2ccccc2)cc1       inhibition                 < 20%
7      NS(=O)(=O)c1ccccc1NC(=O)c1ccc(Cl)cc1       inhibition                 < 20%
8  NS(=O)(=O)c1ccc(NC(=O)c2ccc(C(F)(F)F)cc2)cc1       inhibition                 < 20%
9     NS(=O)(=O)c1ccc(NC(=O)c2ccc(O)cc2)cc1       inhibition                 < 20%

Parameter requested: inhibition. Apply to each item below.
1. NS(=O)(=O)c1ccc(NC(=O)c2ccc(Cl)cc2)cc1
2. COC(=O)c1ccc(C(=O)Nc2ccc(S(N)(=O)=O)cc2)cc1

Response:
< 20%
< 20%

---

test system: Bacteria; experiment: Inhibition of bacterial ImiS expressed in Escherichia coli BL21 (DE3) at 20 uM using imipenem as substrate by spectrometry analysis relative to control
Hi there, I'd appreciate the recorded inhibition for every entry that follows.

Below are worked cases with known answers.
>>> df
                         compound_structure  reported_measurement
0  CC(C)(C)c1ccc(C(=O)Nc2ccccc2S(N)(=O)=O)cc1                 > 70%
1    NS(=O)(=O)c1cccc(NC(=O)c2ccc(Cl)cc2)c1                 > 70%
2      NS(=O)(=O)c1ccc(NC(=O)CCc2ccccc2)cc1                 > 70%
3  COC(=O)c1ccc(C(=O)Nc2ccc(S(N)(=O)=O)cc2)cc1                 > 70%
4    NS(=O)(=O)c1ccc(NC(=O)c2cccc(Br)c2)cc1                 > 70%
5  NS(=O)(=O)c1cccc(NC(=O)c2cccc([N+](=O)[O-])c2)c1                 > 70%

Parameter requested: inhibition. Apply to each item below.
1. NS(=O)(=O)c1cccc(NC(=O)c2ccc(C(F)(F)F)cc2)c1
2. COC(=O)c1ccc(C(=O)Nc2cccc(S(N)(=O)=O)c2)cc1
3. NS(=O)(=O)c1cccc(NC(=O)c2cccc(Br)c2)c1
4. NS(=O)(=O)c1ccc(NC(=O)c2cccc([N+](=O)[O-])c2)cc1
5. NS(=O)(=O)c1ccc(NC(=O)c2ccc(Cl)cc2)cc1

Response:
["> 70%", "95%", "> 70%", "> 70%", "> 70%"]
